meta.source: patent US20210130452A1

- subject-of-test: T1, human IL-17A (human, UniProt Q16552 24-155)
- T1 construct: secreted form (GenBank U32659) expressed in Hek293 with C-terminal 6-His; also called hIL-17A; IL-17A-6HIS
- assay-info: competition ELISA IL17A-RA
measure: pIC50
In textbook form, pIC50 equals minus log to base ten of the concentration in mol/L.

binder	pIC50
13B03-SH-Fc (Fc fusion, not shown: a dimerising Fc or GST, bivalent Fc fusion from Hek-293-6E cells; signal peptide left out; also called MSB0010493; 13B03VHH-SH-Fc) EVQLVESGGGSVQAGDSLRLSCAASGRANSINWFGWFRQTPGKEREFVAGIRWSDAYTEYANSVKGRFTISRDNAKNTVDLQMDSLKPEDTAVYYCVLDLSTVRYWGQGTQVTVSSEPKSSDKTHTCPPCP	10.70

I would be grateful if you could share the reported pIC50 for 13E02 (VHH, Class 4; also called IL17MS13E02) VHH: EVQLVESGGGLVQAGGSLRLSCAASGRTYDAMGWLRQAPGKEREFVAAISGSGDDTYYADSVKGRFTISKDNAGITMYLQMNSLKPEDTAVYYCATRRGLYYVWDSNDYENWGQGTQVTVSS .
9.38

What pIC50 value was documented for this binder, 13B03-LH-Fc (Fc fusion, not shown: a dimerising Fc or GST, bivalent Fc fusion from Hek-293-6E cells; also called MSB0010530) EVQLVESGGGSVQAGDSLRLSCAASGRANSINWFGWFRQTPGKEREFVAGIRWSDAYTEYANSVKGRFTISRDNAKNTVDLQMDSLKPEDTAVYYCVLDLSTVRYWGQGTQVTVSSEPKTPKPQPQPQPQPNPTTESKCPKCP ?
10.51

What measured pIC50 goes with SH-Fc-(GS)2-13E02 (Fc fusion, not shown: a dimerising Fc or GST; small tags and cut ends, also called MSB0010619; SH-(GS)2-Fc-13E02) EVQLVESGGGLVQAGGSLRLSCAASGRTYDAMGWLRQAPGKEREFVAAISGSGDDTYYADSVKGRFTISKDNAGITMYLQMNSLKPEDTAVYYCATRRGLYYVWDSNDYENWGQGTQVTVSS ?
9.95
